- TARGET OF ASSAY: Cannabinoid receptor 2 (Homo sapiens, UniProt P34972)
- Sequence (P34972 whole entry): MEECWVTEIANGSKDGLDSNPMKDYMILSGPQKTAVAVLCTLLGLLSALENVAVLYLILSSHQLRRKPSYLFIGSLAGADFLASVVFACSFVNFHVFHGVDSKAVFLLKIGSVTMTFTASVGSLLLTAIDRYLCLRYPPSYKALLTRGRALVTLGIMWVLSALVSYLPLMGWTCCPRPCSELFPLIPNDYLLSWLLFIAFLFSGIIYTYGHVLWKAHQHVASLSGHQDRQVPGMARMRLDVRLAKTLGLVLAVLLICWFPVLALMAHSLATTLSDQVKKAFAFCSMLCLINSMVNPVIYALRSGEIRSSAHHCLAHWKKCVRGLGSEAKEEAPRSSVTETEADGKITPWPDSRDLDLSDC
- TEST: Displacement of [3H]-CP55940 from human recombinant cannabinoid CB2 receptor expressed in HEK293 cell membranes incubated for 90 mins
Entries and their IC50
Give just the numeric value; µM need not be written.

Can you look up the measured IC50 of CCCCCCN1C(=O)C2C3c4ccccc4C(C)(c4ccccc43)C2C1=O (stereo not drawn) for me?
3.93

Given the compound CCCCCCN1C(=O)C2C3c4ccccc4C(c4ccccc43)C2C1=O (stereo not drawn) , what is its reported IC50?
8.14

Turning now to a further compound:
Sample CCCCCCCN1C(=O)C2C3c4ccccc4C(Cl)(c4ccccc43)C2C1=O (stereo not drawn) — what was its IC50?
9.88
